# TESTED SYSTEM: FLAG-Ago1 (Drosophila melanogaster, UniProt A1Z9J5 1-950)
# Sequence (A1Z9J5 entry or part of it): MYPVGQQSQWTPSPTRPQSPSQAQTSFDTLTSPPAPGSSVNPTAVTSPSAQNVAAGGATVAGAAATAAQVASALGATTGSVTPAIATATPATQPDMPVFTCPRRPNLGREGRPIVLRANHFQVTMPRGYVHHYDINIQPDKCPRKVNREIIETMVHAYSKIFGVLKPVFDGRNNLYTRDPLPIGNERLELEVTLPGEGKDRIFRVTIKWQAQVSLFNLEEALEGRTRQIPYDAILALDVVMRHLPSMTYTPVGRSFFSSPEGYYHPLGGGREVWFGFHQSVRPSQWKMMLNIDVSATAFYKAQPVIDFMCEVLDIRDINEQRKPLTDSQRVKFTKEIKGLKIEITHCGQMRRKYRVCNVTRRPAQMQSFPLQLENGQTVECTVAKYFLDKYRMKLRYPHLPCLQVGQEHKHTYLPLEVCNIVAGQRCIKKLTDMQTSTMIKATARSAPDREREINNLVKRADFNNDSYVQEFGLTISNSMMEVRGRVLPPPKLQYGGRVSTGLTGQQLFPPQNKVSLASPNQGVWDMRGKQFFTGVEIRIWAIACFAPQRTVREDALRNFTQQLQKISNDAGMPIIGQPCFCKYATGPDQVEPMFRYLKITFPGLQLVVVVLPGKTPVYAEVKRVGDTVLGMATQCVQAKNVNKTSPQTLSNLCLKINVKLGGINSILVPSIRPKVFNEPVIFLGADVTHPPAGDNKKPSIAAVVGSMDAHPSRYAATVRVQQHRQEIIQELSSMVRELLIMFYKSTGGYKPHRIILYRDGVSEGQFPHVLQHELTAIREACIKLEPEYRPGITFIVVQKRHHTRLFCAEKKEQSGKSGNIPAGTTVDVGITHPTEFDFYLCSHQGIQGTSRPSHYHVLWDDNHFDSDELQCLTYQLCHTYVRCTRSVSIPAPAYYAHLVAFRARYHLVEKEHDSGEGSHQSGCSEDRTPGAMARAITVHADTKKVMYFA
# MEASUREMENT DESCRIPTION: RBNS; let-7 guide; RBNS: 20 mM HEPES-KOH pH 7.9, 100 mM KOAc, 3.5 mM Mg(OAc) (magnesium acetate), 0.05% CHAPS, 2 mM DTT, 8% glycerol, BSA, tRNA, 25 C 2 h; filter binding: 25 mM HEPES-KOH pH 7.9, 110 mM KOAc, 3.5 mM magnesium acetate, 2 mM DTT, BSA, tRNA, 8% glycerol, 25 C 2 h; competition: 18 mM HEPES-KOH pH 7.4, 100 mM KOAc, 3 mM magnesium acetate, 5 mM DTT, 0.01% IGEPAL, tRNA, 25 C 1 h
# REPORTED CONDITIONS: protein: recombinant; tags: FLAG; g3-g8
METRIC NAME: pKd
Note on pKd: it is the negative log10 of concentration, concentration in mol/L.

State the recorded pKd for this entry: let-7 / 6mer-m8 (dsRNA, guide 5' phosphate) RNA 1: UGAGGUAGUAGGUUGUAUAGU RNA 2: CUACCU 9.48
